Target: Cruzipain (Trypanosoma cruzi) (UniProt P25779)
Sequence (P25779 123-467 limits assumed): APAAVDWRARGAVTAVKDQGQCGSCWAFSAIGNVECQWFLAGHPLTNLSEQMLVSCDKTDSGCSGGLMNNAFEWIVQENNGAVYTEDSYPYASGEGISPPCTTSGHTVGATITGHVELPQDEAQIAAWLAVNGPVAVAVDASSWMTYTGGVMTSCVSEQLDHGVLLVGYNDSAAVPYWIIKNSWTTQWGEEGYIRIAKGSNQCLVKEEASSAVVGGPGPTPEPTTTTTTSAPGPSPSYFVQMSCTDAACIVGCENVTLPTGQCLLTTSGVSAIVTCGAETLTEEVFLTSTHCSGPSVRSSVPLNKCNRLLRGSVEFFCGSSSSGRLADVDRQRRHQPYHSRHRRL
Assay: Inhibition of Trypanosoma cruzi cruzaine in presence of 0.01% Triton X-100
The source made the active and inactive calls. The rule behind the calls is not given here.

compound	inhibition
CCC1S/C(=N/N=C(\C)CSc2ccc(S)cc2)NC1=O (stereo not drawn)	Active
CC1S/C(=N/N=C/CSc2ccccc2)NC1=O (stereo not drawn)	Active
CC1S/C(=N/N=C/CCSc2ccc(Cl)cc2)NC1=O (stereo not drawn)	Active

###

observedProperty: pIC50
Would you please state pIC50, meaning minus log10 of the concentration in mol/L, as a bare number?

API: value(readout=pIC50, system=UniProtKB P25779) for record CC1S/C(=N/N=C/CCSc2ccccc2)NC1=S (centres undefined)
7.22

Request - read-out pIC50 | tested on UniProtKB P25779 | compound CC1S/C(=N/N=C/CCSc2ccc(Cl)cc2)NC1=O (centres undefined)
6.70

Record lookup: for UniProtKB P25779, what pIC50 belongs to Cc1ccc(SC/C=N/N=C2\NC(=O)C(C)S2)cc1 (centres undefined) ?
4.69

Query for UniProtKB P25779: what pIC50 does the record show for CC1S/C(=N/N=C/CCSc2ccccc2)NC1=O (centres undefined) ?
6.40

###

Target: UniProt P25779
Assay: Inhibition of Trypanosoma cruzi cruzaine at 100 uM pre-incubated for 10 mins
observedProperty: inhibition (%)
Your answer should be a plain number; it is taken to be in %.

Give the reported inhibition for CC1S/C(=N/N=C/CSc2ccccc2)NC1=O (stereo not drawn) (system: UniProt P25779).
5

Request - read-out inhibition | tested on UniProt P25779 | molecule C/C(=N\N=C(\N)S)c1ccc(Cl)c(Cl)c1
96

Provide the documented inhibition with UniProt P25779 as the system for NC(=S)N/N=C/C=C/c1ccccc1
35

Form: Entry = CC1S/C(=N/N=C/CCSc2ccccc2)NC1=S (stereo not drawn) | System = UniProt P25779 | inhibition = ____
92

Hi! What's the reported inhibition for CCC1S/C(=N/N=C(\C)CSc2ccc(Cl)cc2)NC1=O (stereo not drawn) on UniProt P25779?
31

Tell me reported inhibition for CC1S/C(=N/N=C/CCSc2ccc(Cl)cc2)NC1=O (stereo not drawn) , tested with UniProt P25779.
98

# get_value(readout= inhibition, system= UniProt P25779) for Cc1ccc(SC/C=N/N=C2\NC(=O)C(C)S2)cc1 (stereo not drawn)
80

Query inhibition on UniProt P25779 for CC/C(=N\N=C(\N)S)c1cccc(Br)c1
92

Form field - read-out: inhibition; system: UniProt P25779; submitted item: Cc1ccc(SC/C=N/N=C2\NC(=S)C(C)S2)cc1 (stereo not drawn)
6

Form field - read-out: inhibition; system: UniProt P25779; submitted item: CCC1S/C(=N/N=C/CSc2ccc(Br)cc2)NC1=O (stereo not drawn)
38

Item CCC1S/C(=N/N=C(\C)CSc2ccc(C)cc2)NC1=O (stereo not drawn) with UniProt P25779 - inhibition?
22

Requested read-out inhibition, target or system UniProt P25779, entry O=C1CS/C(=N/N=C/CSc2ccc(Br)cc2)N1
8

Recorded inhibition for CCC1S/C(=N/N=C(\C)CSc2ccc(S)cc2)NC1=O (stereo not drawn) with UniProt P25779, please?
11

src = ChEMBL document CHEMBL1275380
